Hello, the source for this data is patent US20260209362A1, in case you need it.

Quick list: ELISA binding hIL-12RB2/control per entry.
# assay_system: T1, biotinylated recombinant human IL-12Rβ2 (human, UniProt Q99665 24-622, random biotinylated)
# T1 construct: Recombinant protein produced in-house, biotinylated; also called hIL-12RB2; human IL-12RB2
# T1 sequence: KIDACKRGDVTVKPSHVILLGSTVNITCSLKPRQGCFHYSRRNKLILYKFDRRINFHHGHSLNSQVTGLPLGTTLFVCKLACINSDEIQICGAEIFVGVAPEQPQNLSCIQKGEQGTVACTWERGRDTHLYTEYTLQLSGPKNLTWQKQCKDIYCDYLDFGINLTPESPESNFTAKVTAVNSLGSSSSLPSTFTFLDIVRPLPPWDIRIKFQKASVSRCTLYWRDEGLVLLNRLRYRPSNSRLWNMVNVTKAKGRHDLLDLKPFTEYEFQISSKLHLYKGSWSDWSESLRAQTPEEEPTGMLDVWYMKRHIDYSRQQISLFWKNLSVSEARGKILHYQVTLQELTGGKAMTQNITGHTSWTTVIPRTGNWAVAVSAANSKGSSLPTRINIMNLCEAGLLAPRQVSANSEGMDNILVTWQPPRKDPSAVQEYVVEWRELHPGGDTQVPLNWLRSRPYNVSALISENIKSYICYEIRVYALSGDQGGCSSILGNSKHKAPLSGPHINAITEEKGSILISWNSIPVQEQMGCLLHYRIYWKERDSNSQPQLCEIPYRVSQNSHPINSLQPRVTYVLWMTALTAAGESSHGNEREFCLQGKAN
# test_details: ELISA, periplasmic extract on biotinylated hIL-12Rβ2, signal over control wells
Give just the number in ratio; leave the unit off.

| binder | observed_measurement |
| --- | --- |
| anti-IL-12Rβ2 VHH clone 20504 (VHH, not shown: small tags and cut ends, tested as periplasmic extract; also called 3CAM3) VHH: QVQLQESGGGLVQAGGSLKLSCAATGFILDYVGVGWFRQAPGKERDFVAAISRDARITDYADSVKGRFTISRDNAKNTAYLQMNSLNPEDTAVYFCAAAYTYSGSHYVTARSSDYHTWGQGTQVTVSS | 1.27 |

Query: So what's the measured ELISA binding hIL-12RB2/control for this one? anti-IL-12Rβ2 VHH clone 20446 (VHH, not shown: small tags and cut ends, tested as periplasmic extract; also called 2CRM32) VHH: QVQLQESGGGLVQPGGSLRLSCTASGSIFASDDMYWYRQAPGKQREFVAYITATNSANYLDSVNGRFTISRDNAKNSVYLQMNSLKPEDTAVYYCNAKQIVGFQIDEYWGQGTQVTVSS
Result: 1.01

Query: So what's the measured ELISA binding hIL-12RB2/control for this one? anti-IL-12Rβ2 VHH clone 21065 (VHH, not shown: small tags and cut ends, tested as periplasmic extract; also called 3CRHM240) VHH: QVQLQESGGGSVQAGGSLRLSCAVSGRTVSDYAMGWFRQAPGKEREFVVAMSSSETTVYTNSVKGRITISRDNAKNAVYLQMNALKPEDTAVYYCSMGPITTFQGLARQNEYHYWGQGTQVTVSS
Result: 3.78

Query: So what's the measured ELISA binding hIL-12RB2/control for this one? anti-IL-12Rβ2 VHH clone 20515 (VHH, not shown: small tags and cut ends, tested as periplasmic extract; also called 3CAM79) VHH: QVQLQESGGGLVQAGGSLRLSCAASGRTFSTYAMGWFRQAPGKEREFVAAISWSGGRTYYADSVKGRFAISRDNAKNTAYLQMNSLKPEDTAVYYCAADPSDYMGSYYGARRYDYWGQGTQVTVSS
Result: 1.31
